Target protein (sequence): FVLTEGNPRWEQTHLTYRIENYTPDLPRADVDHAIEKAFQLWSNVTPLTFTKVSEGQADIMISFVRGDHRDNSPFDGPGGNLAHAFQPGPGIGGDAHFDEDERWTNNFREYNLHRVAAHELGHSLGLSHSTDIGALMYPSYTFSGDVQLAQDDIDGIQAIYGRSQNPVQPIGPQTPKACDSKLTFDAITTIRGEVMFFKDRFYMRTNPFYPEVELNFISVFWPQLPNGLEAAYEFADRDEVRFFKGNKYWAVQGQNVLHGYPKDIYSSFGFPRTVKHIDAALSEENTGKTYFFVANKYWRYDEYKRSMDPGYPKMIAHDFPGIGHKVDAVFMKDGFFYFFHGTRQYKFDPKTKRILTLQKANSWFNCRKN
measured.attribute: IC50 (µM)

{"columns": ["compound", "IC50, µM"],
 "data": [
  ["C[S+]([O-])CC[C@H](NS(=O)(=O)c1ccc2c(c1)Sc1ccccc1O2)C(=O)O (stereo partly shown)", 72],
  ["C[C@H](NS(=O)(=O)c1ccc2c(c1)Sc1ccccc1O2)C(=O)O", 76],
  ["CC(C)C[C@H](NS(=O)(=O)c1ccc2c(c1)Sc1ccccc1O2)C(=O)O", 55]
]}

----------
Target: MMP-2CD
Experiment: Thiopeptolide assay, gelatinase A catalytic domain (GCD/GaCD)
Conditions: 1 nM, pH 7.0, 100 μM thiopeptolide substrate
pIC50: −log10 of the molar value.
measured.attribute: pIC50

Answered examples (6):
{"columns": ["substance.smiles", "system.under.test", "value.measured"],
 "data": [
  ["O=C(O)[C@H](CO)NS(=O)(=O)c1ccc2c(c1)Sc1ccccc1O2", "MMP-2CD", 7.16],
  ["O=C(O)[C@H](Cc1c[nH]c2ccccc12)NS(=O)(=O)c1ccc2c(c1)Sc1ccccc1O2", "MMP-2CD", 6.04],
  ["O=C(O)[C@H](Cc1ccccc1)NS(=O)(=O)c1ccc2c(c1)Sc1ccccc1O2", "MMP-2CD", 6.77],
  ["O=C(O)[C@H](CCc1ccccc1)NS(=O)(=O)c1ccc2c(c1)Sc1ccccc1O2", "MMP-2CD", 7.48],
  ["O=C(O)[C@H](CCc1ccccc1)NS(=O)(=O)c1ccc2c(c1)Cc1ccccc1O2", "MMP-2CD", 6.70],
  ["CC(C)[C@H](NS(=O)(=O)c1ccc2c(c1)Sc1ccccc1S2)C(=O)O", "MMP-2CD", 4.81]
]}

1. O=C(O)[C@H](CSC(c1ccccc1)(c1ccccc1)c1ccccc1)NS(=O)(=O)c1ccc2c(c1)Sc1ccccc1O2
2. O=C(O)[C@@H](NS(=O)(=O)c1ccc2c(c1)Sc1ccccc1O2)c1ccccc1
Among 1 and 2 , whose measured pIC50 is the smaller figure? Provide the label of your selected option as the answer. 1
(1: 5.49, 2: 6.82)

----------
pIC50: −log10 of the molar value.
Consider molecules characterized by their pIC50 with MMP-9 (Homo sapiens).
Sequence (P14780 94-707): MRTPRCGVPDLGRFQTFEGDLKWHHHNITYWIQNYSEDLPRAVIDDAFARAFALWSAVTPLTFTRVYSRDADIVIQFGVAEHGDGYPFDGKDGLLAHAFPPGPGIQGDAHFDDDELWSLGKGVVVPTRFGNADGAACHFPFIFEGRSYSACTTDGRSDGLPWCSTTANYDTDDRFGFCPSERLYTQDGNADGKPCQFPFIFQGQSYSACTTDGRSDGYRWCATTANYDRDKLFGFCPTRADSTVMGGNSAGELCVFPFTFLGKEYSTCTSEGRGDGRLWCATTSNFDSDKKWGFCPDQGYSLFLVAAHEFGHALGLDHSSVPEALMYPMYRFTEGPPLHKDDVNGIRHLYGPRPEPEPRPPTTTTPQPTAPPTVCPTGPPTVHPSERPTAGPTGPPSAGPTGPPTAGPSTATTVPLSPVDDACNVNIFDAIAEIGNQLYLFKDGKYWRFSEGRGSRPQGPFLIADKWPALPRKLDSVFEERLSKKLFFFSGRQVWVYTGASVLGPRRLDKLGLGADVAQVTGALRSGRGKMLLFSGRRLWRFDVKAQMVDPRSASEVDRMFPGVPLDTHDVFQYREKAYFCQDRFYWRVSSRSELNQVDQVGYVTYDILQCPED
measured.attribute: pIC50

{"columns": ["molecule", "pIC50"],
 "data": [
  ["O=C(O)[C@H](Cc1ccc(O)cc1)NS(=O)(=O)c1ccc2c(c1)Sc1ccccc1O2", 4.74],
  ["CC(C)C[C@H](NS(=O)(=O)c1ccc2c(c1)Sc1ccccc1O2)C(=O)O", 4.74]
]}

a. C[S+]([O-])CC[C@H](NS(=O)(=O)c1ccc2c(c1)Sc1ccccc1O2)C(=O)O (stereo partly shown)
b. O=C(O)[C@H](CO)NS(=O)(=O)c1ccc2c(c1)Sc1ccccc1O2
Among a and b , whose measured pIC50 is the smaller figure? Provide the label of your selected option as the answer. b
(b: 4.09, a: 4.42)
